We begin with a simple list: items and their reported z-score.
- Protocol Notes: Plasmodium falciparum growth inhibition, primary screen, strain 3D7, DAPI fluorescence, 100 nL (AID 1184);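 also: parasites grown inside human red blood cells in medium with human serum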
- Run Parameters: P. falciparum 3D7 growth, 3 d, higher = more signal
Write the value as a bare number.

Previously resolved entries follow.
COCCOC(=O)N1C(=O)[C@@]2(c3cc(C#CC4=CCCCC4)ccc31)[C@H](C(N)=O)[C@H]1C(=O)O[C@H](c3ccccc3)[C@H](c3ccccc3)N1[C@@H]2c1ccc(OCCO)cc1	-2
CCOC(=O)[C@H]1C/C=C/C[C@H](C(=O)OCC)C(=O)O[C@H]2[C@@H](OC)O[C@H](CO)[C@@H](OC(=O)Nc3cccc(F)c3)[C@@H]2OC1=O	-1.73
COc1ccc([Si](C)(C)[C@H]2[C@H](CC(=O)N3CCC[C@H]3CO)O[C@@]3(C(=O)N(Cc4cccc(N5C(=O)c6cccc7cccc5c67)c4)c4ccccc43)[C@@H]2C)cc1	-1.72
O=C1c2ccccc2[C@](Cc2ccccc2I)(C(=O)NC2CC2)[C@H](c2ccc(CO)cc2)N1Cc1ccccc1	-0.35
O=C1OCCC/C=C\[C@H]2OC34C=CCN(Cn5nnc6ccccc65)C(=O)[C@H]3N(CCO)C(=O)[C@@H]4C12 (stereo partly drawn)	-1.18
C[C@@]1([C@@H](NC(=O)c2ccccc2)c2ccc(-c3ccccc3)cc2)C[C@H]1C1CCCCC1	-0.206

Now consider a different compound.
Answer with the recorded z-score for the compound listed here: CN(C)C(=O)[C@@]1(Cc2ccccc2CN=[N+]=[N-])N=C(c2ccc(OCCCO)cc2)O[C@H]1c1ccccc1
-2.27

----------
- Assay Target: Epidermal growth factor receptor (Homo sapiens)
- Protocol Notes: EGFR binders on small-molecule microarrays, primary screen, biochemical, small-molecule microarray, 635 nm fluorescence (AID 1104);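 also: score merges 667 nm emission intensity with spot signal to noise over triplicate slides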
- Run Parameters: EGFR binding, higher = more signal
Would you please tag the item condition met when its composite z-score is -0.5 or above, and condition not met when it is below?

Reference set, count: 5
O=C(NCc1ccccc1)[C@@H]1c2ccccc2C(=O)N(CC23CC4CC(CC(C4)C2)C3)[C@H]1c1ccc(CO)cc1	condition met
[N-]=[N+]=Nc1ccccc1C[C@@]1(C(=O)NCCN2CCOCC2)N=C(c2ccc(OCCCO)cc2)O[C@@H]1c1ccccc1	condition met
CN(C)CCCNC(=O)[C@@]1(c2ccc([N+](=O)[O-])cc2)CC(=O)N(C2CCCCC2)[C@@H]1c1ccc(CO)cc1I	condition met
CN(C)C(=O)[C@@]1(Cc2ccccc2CN=[N+]=[N-])N=C(c2ccc(OCCCO)cc2)O[C@H]1c1ccccc1	condition met
Cc1ccc(S[C@]2(C(=O)NCC(F)(F)F)CC(=O)N(C(C)C)[C@@H]2c2ccc(CO)cc2I)cc1	condition not met

Reported composite z-score at or above -0.5? CC(C)[C@@H](CO)NC(=O)[C@H]1[C@@H](c2ccccc2)N(c2ccccc2)O[C@@H]1C
condition met

Reported composite z-score at or above -0.5? COC(=O)C=C(CC(O)c1cccc(Cl)c1)OC (stereo not drawn)
condition met

Reported composite z-score at or above -0.5? Cc1ccc(S[C@]2(C(=O)NCCN3CCOCC3)CC(=O)N(Cc3ccccc3)[C@@H]2c2ccc(CO)cc2I)cc1
condition not met

----------
We begin with a simple list: items and their reported z-score.
- Protocol Notes: cell viability in Huh7 cells, primary screen, cytotoxicity control for HCV replication inhibitor project, CellTiter-Glo luminescence, basal, 48 h (AID 1143);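 also: Huh7 hepatoma cells carrying a hepatitis C replication reporter with no stimulus; test concentration not given here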
- Run Parameters: Huh7 HCV replicon, higher = more signal, called active from +8 up or from −8 down
Write the value as a bare number.

Previously resolved entries follow.
COc1ccc([Si](C)(C)[C@H]2[C@H](CCn3cc([C@H](O)c4ccccc4)nn3)O[C@@]3(C(=O)N(Cc4cccc(N5CCOC5=O)c4)c4ccccc43)[C@@H]2C)cc1	-1.78
O=C1[C@H]2C=C(Br)[C@H](C[C@@H]2OCCCCO)[C@@]12CO2	0.722
CCCC=C(CCC)[C@@H](NS(=O)(=O)c1cccs1)c1ccc(C(=O)OC)cc1	-3.88

Answer with the recorded z-score for the compound listed here: COC(=O)[C@@]1(Cc2ccc(OC)cc2)[C@H]2c3cc(C(=O)N(C)C)n(Cc4cccc5ccccc45)c3C[C@H]2CN1C(=O)c1ccccc1
-4.45

Answer with the recorded z-score for the compound listed here: CC(C)N1C(=O)[C@@]2(Cc3ccccc31)c1ccccc1C(=O)N(C1CCCCC1)[C@H]2c1ccc(CO)cc1
-0.8

Answer with the recorded z-score for the compound listed here: C=CCOC(=O)[C@@H]1[C@H]2C(=O)O[C@H](c3ccccc3)[C@H](c3ccccc3)N2[C@H](c2ccc(OCCOC(=O)[C@@H]3C[C@@H]4C(=O)N[C@@H](Cc5ccccc5)C(=O)N4[C@@H]3c3ccc(O)cc3)cc2)[C@@]12C(=O)Nc1ccc(I)cc12
-1.28

Answer with the recorded z-score for the compound listed here: COc1cc2c(cc1OC)CN(C(=O)[C@@H]1[C@H]3C(=O)O[C@H](c4ccccc4)[C@H](c4ccccc4)N3[C@H](c3ccc(O)cc3)[C@@]13C(=O)Nc1ccc(C#CC4(O)CCCCCC4)cc13)CC2
-0.292

Answer with the recorded z-score for the compound listed here: O=C1c2ccccc2[C@@]2(Cc3ccccc3N(CCN3CCOCC3)C2=O)[C@H](c2ccc(CO)cc2)N1Cc1ccccc1
-1.24

Answer with the recorded z-score for the compound listed here: CN1C(=O)C2C=CC(C(O)C3CCCCC3)N(Nc3ccc([N+](=O)[O-])cc3[N+](=O)[O-])C2C1=O (centres undefined)
0.729

Answer with the recorded z-score for the compound listed here: COC(=O)[C@@]1(Cc2ccc(OC)cc2)[C@H]2c3cc(C(=O)N(C)C)n(CCN4CNCC4=O)c3C[C@H]2CN1C(=O)c1ccccc1
-0.582

Answer with the recorded z-score for the compound listed here: OC([C@@H]1CC(c2ccccc2)=NO1)[C@H]1CC(c2ccccc2)=NO1 (some centres undefined)
-0.263

Answer with the recorded z-score for the compound listed here: C=C(CCCC)C(=O)CC[C@H](OC(C)=O)c1cccc(OCCO)c1
-3.51

Answer with the recorded z-score for the compound listed here: CN1C(=O)C2C=CC(C(O)c3ccc(-c4ccccc4)s3)N(N(c3ccccc3)c3ccccc3)C2C1=O (centres undefined)
-0.0598

Answer with the recorded z-score for the compound listed here: [N-]=[N+]=Nc1ccccc1C[C@@]1(C(=O)NCCN2CCOCC2)N=C(c2ccc(OCCCO)cc2)O[C@@H]1c1ccccc1
-3.8

----------
- Protocol Notes: CREB reporter modulators under forskolin, primary screen, cell-based, PC12, CRE-LacZ reporter, forskolin-stimulated (AID 1146);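 also: PC12 cells with 6xCRE LacZ reporter stimulated by forskolin 10 µM; beta-galactosidase reporter signal reflecting CREB driven transcription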
- Run Parameters: luminescence, 4.5 h, higher = more signal, called active from +8 up or from −8 down
Would you please tag the item fulfilled when its z-score is 0.04 or above, and not fulfilled when it is below?

Reference set, count: 5
COc1ccc(CCN2C(=O)[C@@]3(Cc4ccccc42)c2ccccc2C(=O)N(Cc2ccccc2C(F)(F)F)[C@H]3c2ccc(CO)cc2)cc1	not fulfilled
C[N+](C)(C)CCCC[C@@H]1NC(=O)[C@@H]2C[C@H](C(=O)NCCCCCN)[C@H](c3cccc(OCCO)c3)N2C1=O	fulfilled
CN1C(=O)C2C=CC(C(O)Cc3ccccc3)N(Nc3ccccc3)C2C1=O (configuration not stated)	fulfilled
CCCCN1CC=CC23O[C@@H]4/C=C\CCC(C)OC(=O)C4[C@H]2C(=O)N(CCCCCO)[C@@H]3C1=O (some centres not stated)	not fulfilled
CC1CC/C=C\[C@H]2OC34C=CCN(C(C)(C)C)C(=O)[C@H]3N(CCCCCCO)C(=O)[C@@H]4C2C(=O)O1 (some centres not stated)	not fulfilled

Reported z-score at or above 0.04? COc1ccc(CCNC(=O)[C@@]2(C)c3ccccc3C(=O)N(Cc3cc(F)cc(C(F)(F)F)c3)[C@H]2c2ccc(CO)cc2)cc1
not fulfilled

Reported z-score at or above 0.04? O=C1C2C=CC(C(O)C3CCCCC3)N(Nc3ccc([N+](=O)[O-])cc3)C2C(=O)N1c1ccccc1 (configuration not stated)
fulfilled

----------
- Protocol Notes: adipocyte viability effects, profiling panel, cell-based, 3T3-L1 adipocytes, calcein-AM fluorescence, 48 h, basal (AID 1163); also: test concentration not given here
- Run Parameters: 3T3-L1 adipocytes viability, higher = more signal
// assign criterion met if z-score falls strictly below 0.6, else criterion not met (ties count as criterion not met)

COc1ccc(C(O)C2C=CC3C(=O)NC(=O)C3N2Nc2ccccn2)c2ccccc12 (stereo unspecified)	criterion met
O=C1O[C@@H](c2ccccc2)[C@@H](c2ccccc2)N2[C@@H](c3ccc(OCCO)cc3)[C@]3(C(=O)Nc4ccccc43)[C@@H](C(=O)NC[C@H](O)c3ccccc3)[C@H]12	criterion met
COC(=O)[C@@]1(Cc2ccc(F)cc2)[C@H]2c3cc(C(=O)N(C)C)n(CC4CC4)c3C[C@H]2CN1C(=O)c1ccccc1	criterion met

Problem: For the molecule C=CCOC(=O)[C@H]1[C@@H]2C(=O)O[C@@H](c3ccccc3)[C@@H](c3ccccc3)N2[C@@H](c2ccc(OCCOC(=O)[C@@H]3C[C@@H]4C(=O)N5CCC[C@H]5C(=O)N4[C@@H]3c3cccc(OCCO)c3)cc2)[C@]12C(=O)Nc1ccccc12 , is z-score under 0.6?
criterion not met

Problem: For the molecule COC(=O)C(CC#Cc1ccc2c(c1)[C@]1(C(=O)N2)[C@H](c2ccc(O)cc2)N2[C@H](c3ccccc3)[C@H](c3ccccc3)OC(=O)[C@H]2[C@@H]1C(=O)Nc1nc2ccccc2s1)C(=O)OC , is z-score under 0.6?
criterion not met
